measured on: Glycogen synthase kinase-3 beta (Homo sapiens, UniProt P49841)
Sequence (P49841 whole entry): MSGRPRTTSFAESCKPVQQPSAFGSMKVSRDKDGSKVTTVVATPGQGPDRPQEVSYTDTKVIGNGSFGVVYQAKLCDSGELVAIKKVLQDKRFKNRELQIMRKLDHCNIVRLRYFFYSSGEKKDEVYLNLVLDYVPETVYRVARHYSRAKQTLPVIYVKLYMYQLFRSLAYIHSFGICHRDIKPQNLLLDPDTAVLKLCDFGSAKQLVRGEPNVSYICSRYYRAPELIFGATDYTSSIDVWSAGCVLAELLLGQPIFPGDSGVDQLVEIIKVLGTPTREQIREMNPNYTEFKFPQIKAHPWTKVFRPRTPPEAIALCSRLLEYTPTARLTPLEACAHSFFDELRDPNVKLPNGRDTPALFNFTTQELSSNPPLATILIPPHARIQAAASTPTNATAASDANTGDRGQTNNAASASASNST
observation type: IC50 (µM)
Numbers only, in µM.

input_smiles=O=C1NC(NC23CC4CC(CC(NC(=O)C5CC5)(C4)C2)C3)=N/C1=C\c1ccc2ncsc2c1 result_number=0.366

Q) GET /values?readout=IC50&system=Glycogen synthase kinase-3 beta (Homo sapiens, UniProt P49841)&item= O=C1NC(N[C@@H](CO)CC2CC2)=N/C1=C\c1ccc2ncsc2c1
A) 4.39

----------
Sequence of the target: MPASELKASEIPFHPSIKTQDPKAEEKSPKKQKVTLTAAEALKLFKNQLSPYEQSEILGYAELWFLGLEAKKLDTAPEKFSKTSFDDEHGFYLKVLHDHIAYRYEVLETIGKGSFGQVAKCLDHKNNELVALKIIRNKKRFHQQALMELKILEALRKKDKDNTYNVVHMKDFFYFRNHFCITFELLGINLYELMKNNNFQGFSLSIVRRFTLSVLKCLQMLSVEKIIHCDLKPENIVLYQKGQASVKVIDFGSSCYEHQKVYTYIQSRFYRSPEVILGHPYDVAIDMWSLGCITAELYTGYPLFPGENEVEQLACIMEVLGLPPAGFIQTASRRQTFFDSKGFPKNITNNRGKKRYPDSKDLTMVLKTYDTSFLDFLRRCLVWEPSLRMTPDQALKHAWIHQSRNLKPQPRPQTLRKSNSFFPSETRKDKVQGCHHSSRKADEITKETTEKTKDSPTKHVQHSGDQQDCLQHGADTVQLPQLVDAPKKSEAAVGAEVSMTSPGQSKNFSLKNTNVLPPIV
Provide the recorded IC50 for the entries that follow.
Answers are plain numbers, in nM.

Sample records with IC50:
molecule="CC1(C)CNC(=O)C1NC1=N/C(=C\\c2ccc3ncsc3c2)C(=O)N1 (racemic)" unit_abbreviation=nM result_number=3470
molecule=O=C1NC(N[C@@H](CO)CC2CCCC2)=N/C1=C\c1ccc2ncsc2c1 unit_abbreviation=nM result_number=1720
molecule=CN(C)C12CC3CC(CC(NC4=N/C(=C\c5ccc6ncsc6c5)C(=O)N4)(C3)C1)C2 unit_abbreviation=nM result_number=411

Look at each molecule and report its IC50.
1. Cn1ncc2cc(/C=C3\N=C(NC45CC6CC(CC(C6)C4)C5)NC3=O)ccc21
2. O=C1NC(NC23CC4CC(CC(C4)C2)C3)=N/C1=C\c1ccc2[nH]ncc2c1
3. C[C@@H]1[C@H]2C[C@@H](C[C@H]1NC1=N/C(=C\c3ccc4ncsc4c3)C(=O)N1)C2(C)C
4. O=C1NC(NC2CCCCC2)=N/C1=C\c1ccc2[nH]cnc2c1

A)
1. 1630
2. 663
3. 719
4. 1860
